Recorded pIC50 for the following compounds
Target: IKKε (Homo sapiens, UniProt Q14164)
Sequence (Q14164 whole entry, species assumed): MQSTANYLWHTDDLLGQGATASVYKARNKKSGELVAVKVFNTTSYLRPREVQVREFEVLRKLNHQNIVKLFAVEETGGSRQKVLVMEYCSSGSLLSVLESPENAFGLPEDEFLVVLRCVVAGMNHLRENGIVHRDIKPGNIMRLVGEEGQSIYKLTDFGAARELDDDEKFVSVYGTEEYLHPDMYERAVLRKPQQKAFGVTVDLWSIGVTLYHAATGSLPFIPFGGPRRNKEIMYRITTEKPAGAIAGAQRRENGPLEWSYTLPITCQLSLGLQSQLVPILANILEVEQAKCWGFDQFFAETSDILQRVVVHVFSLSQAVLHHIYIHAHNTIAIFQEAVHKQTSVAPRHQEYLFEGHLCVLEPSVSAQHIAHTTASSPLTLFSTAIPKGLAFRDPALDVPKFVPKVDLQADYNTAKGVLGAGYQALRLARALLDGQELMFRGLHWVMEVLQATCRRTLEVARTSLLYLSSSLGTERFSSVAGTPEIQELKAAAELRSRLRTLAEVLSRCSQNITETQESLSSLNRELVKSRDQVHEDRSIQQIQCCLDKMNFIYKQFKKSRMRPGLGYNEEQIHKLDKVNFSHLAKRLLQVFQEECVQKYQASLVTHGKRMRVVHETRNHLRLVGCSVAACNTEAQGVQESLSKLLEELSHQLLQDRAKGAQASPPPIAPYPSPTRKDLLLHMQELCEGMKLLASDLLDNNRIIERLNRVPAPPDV
Test: IKKe Biochemical Assay
Details: read-out: IKKε IC50
pIC50: −log10 of the molar value. Where a name gives a salt, the structure may show the parent alone.

N#Cc1cc(-c2ccnc3cc(-c4ccc(C(=O)NC5CN6CCC5CC6)cc4)oc23)ccc1OC1CCCOC1 (stereo not shown) [Compound 171] : 6.00 to 7.00
COc1cc(C(=O)N2CCN(C)CC2)cnc1-c1cc2nccc(-c3ccc(N4CC[C@H](F)C4)c(C#N)c3)c2o1 [Compound 461] : > 7.00
COc1cc(C(=O)N(C)C)ncc1-c1cc2nccc(-c3ccc(NC4CCNC4)c(C#N)c3)c2o1 (stereo not shown) [Compound 431] : > 7.00
COc1cc(C(=O)N2CC3C2CCN3C)cnc1-c1cc2nccc(-c3ccc(OC4CCOCC4)c(C#N)c3)c2o1 (stereo not shown) [Compound 405, hydrochloride] : > 7.00
COc1cc(C(=O)N2CC[C@H](N(C)C)C2)ncc1-c1cc2nccc(-c3ccc(N4CC[C@H](F)C4)c(C#N)c3)c2o1 [Compound 449] : > 7.00

# input If you can, please state the reported pIC50 value of COc1cc(C(=O)N(C)C)ccc1-c1cc2nccc(-c3cc(C#N)c(OC4CCOCC4)c(C4CC4)c3)c2o1 [Compound 307] .
# output 6.00 to 7.00

# input Repeat for the following compound: COc1cc(C(=O)N(C)C)cnc1-c1cc2nccc(-c3ccc(OC4CCN(C(C)C)C4)c(C#N)c3)c2o1 (stereo not shown) [Compound 427]
# output 6.00 to 7.00

# credit: patent US10428080B2
